- SUBJECT_OF_TEST: T1, recombinant human CEACAM-1 (R&D Systems cat. no. 2244-CM-050) (human, UniProt P13688 35-428)
- T1 construct: Coated on the ELISA plate at 0.5 ug/ml
- T1 sequence (looked up): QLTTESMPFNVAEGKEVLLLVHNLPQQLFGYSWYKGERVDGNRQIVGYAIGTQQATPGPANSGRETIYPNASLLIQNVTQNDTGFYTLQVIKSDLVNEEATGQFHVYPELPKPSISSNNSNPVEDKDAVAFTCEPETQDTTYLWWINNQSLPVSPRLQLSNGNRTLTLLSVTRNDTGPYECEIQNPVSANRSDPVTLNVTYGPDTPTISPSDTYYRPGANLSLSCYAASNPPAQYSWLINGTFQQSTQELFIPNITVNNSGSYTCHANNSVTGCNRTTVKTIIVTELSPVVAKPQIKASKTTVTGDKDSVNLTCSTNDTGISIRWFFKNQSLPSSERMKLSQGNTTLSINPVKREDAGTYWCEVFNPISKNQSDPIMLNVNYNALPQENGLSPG
- PROTOCOL_SUMMARY: competition ELISA on coated recombinant human CEACAM-1; competitor biotinylated chimeric CM-10 IgG1
- Excerpt: The binding of the biotinylated antibody was detected with streptavidin-HRP (Sigma cat. no. S5512) and TMB substrate (Invitrogen cat. no. 00-2023). The reaction was stopped with 3M HC1, absorbance read at 450 nm on a Dynex Technologies MRX TC II plate reader and the binding curves plotted.
PROPERTY_LABEL: IC50 normalized to CM-10

binder="humanized anti-CEACAM-1 variant VH5/VK3, IgG4 (S241P) (antibody, V domains shown, Tested as human IgG4 (S241P) / kappa antibody; only the variable regions are tied to this variant) VH: QVQLVQSGAEVKKPGASVKVSCKASGYAFTNNLIEWVRQAPGQGLEWIGVINPGSGDTNYNEKFKGRVTMTADKSISTAYMELSRLRSDDTAVYYCARGDYYGGFAVDYWGQGTTVTVSS VL: DIQMTQSPSSLSASVGDRVTITCRTSQDIGNYLNWYQQKPGKAVKLLIYYTSRLHSGVPSRFSGSGSGTDYTFTISSLQPEDIATYFCQQGKSLPRTFGGGTKVEIK" measurement="1.17 ratio to IC50 of chimeric CM-10"
binder="humanized anti-CEACAM-1 variant VH1/VK3, IgG4 (S241P) (antibody, V domains shown, Tested as human IgG4 (S241P) / kappa antibody; only the variable regions are tied to this variant) VH: QVQLVQSGAELKKPGASVKVSCKASGYAFTNNLIEWVKQAPGQGLEWIGVINPGSGDTNYNEKFKGRATLTADKSINTAYMELSSLTSDDSAVYFCARGDYYGGFAVDYWGQGTSVTVSS VL: DIQMTQSPSSLSASVGDRVTITCRTSQDIGNYLNWYQQKPGKAVKLLIYYTSRLHSGVPSRFSGSGSGTDYTFTISSLQPEDIATYFCQQGKSLPRTFGGGTKVEIK" measurement="1.05 ratio to IC50 of chimeric CM-10"
binder="humanized anti-CEACAM-1 variant VH5/VK3, IgG1 (antibody, V domains shown, Tested as human IgG1 / kappa antibody; only the variable regions are tied to this variant) VH: QVQLVQSGAEVKKPGASVKVSCKASGYAFTNNLIEWVRQAPGQGLEWIGVINPGSGDTNYNEKFKGRVTMTADKSISTAYMELSRLRSDDTAVYYCARGDYYGGFAVDYWGQGTTVTVSS VL: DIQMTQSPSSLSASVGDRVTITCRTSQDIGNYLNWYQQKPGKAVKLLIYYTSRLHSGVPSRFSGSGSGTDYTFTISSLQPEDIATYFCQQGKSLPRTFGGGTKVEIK" measurement="1.12 ratio to IC50 of chimeric CM-10"
binder="humanized anti-CEACAM-1 variant VH2/VK1, IgG1 (antibody, V domains shown, Tested as human IgG1 / kappa antibody; only the variable regions are tied to this variant) VH: QVQLVQSGAEVKKPGASVKVSCKASGYAFTNNLIEWVKQAPGQGLEWIGVINPGSGDTNYNEKFKGRATLTADKSINTAYMELSRLRSDDTAVYFCARGDYYGGFAVDYWGQGTTVTVSS VL: DIQMTQSPSSLSASVGDRVTITCRTSQDIGNYLNWYQQKPGKAVKLLIYYTSRLHSGVPSRFSGSGSGTDYTLTISSLQQEDIATYFCQQGKSLPRTFGGGTKVEIK" measurement="1.29 ratio to IC50 of chimeric CM-10"
binder="humanized anti-CEACAM-1 variant VH3/VK2, IgG1 (antibody, V domains shown, Tested as human IgG1 / kappa antibody; only the variable regions are tied to this variant) VH: QVQLVQSGAEVKKPGASVKVSCKASGYAFTNNLIEWVRQAPGQGLEWIGVINPGSGDTNYNEKFKGRATLTADKSINTAYMELSRLRSDDTAVYYCARGDYYGGFAVDYWGQGTTVTVSS VL: DIQMTQSPSSLSASVGDRVTITCRTSQDIGNYLNWYQQKPGKAVKLLIYYTSRLHSGVPSRFSGSGSGTDYTLTISSLQPEDIATYFCQQGKSLPRTFGGGTKVEIK" measurement="1.36 ratio to IC50 of chimeric CM-10"
binder="humanized anti-CEACAM-1 variant VH3/VK1, IgG1 (antibody, V domains shown, Tested as human IgG1 / kappa antibody; only the variable regions are tied to this variant) VH: QVQLVQSGAEVKKPGASVKVSCKASGYAFTNNLIEWVRQAPGQGLEWIGVINPGSGDTNYNEKFKGRATLTADKSINTAYMELSRLRSDDTAVYYCARGDYYGGFAVDYWGQGTTVTVSS VL: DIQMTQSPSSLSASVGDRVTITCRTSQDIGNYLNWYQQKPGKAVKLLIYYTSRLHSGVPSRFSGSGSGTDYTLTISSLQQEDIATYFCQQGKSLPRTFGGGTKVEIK" measurement="1.1 ratio to IC50 of chimeric CM-10"
binder="humanized anti-CEACAM-1 variant VH3/VK2, IgG4 (S241P) (antibody, V domains shown, Tested as human IgG4 (S241P) / kappa antibody; only the variable regions are tied to this variant) VH: QVQLVQSGAEVKKPGASVKVSCKASGYAFTNNLIEWVRQAPGQGLEWIGVINPGSGDTNYNEKFKGRATLTADKSINTAYMELSRLRSDDTAVYYCARGDYYGGFAVDYWGQGTTVTVSS VL: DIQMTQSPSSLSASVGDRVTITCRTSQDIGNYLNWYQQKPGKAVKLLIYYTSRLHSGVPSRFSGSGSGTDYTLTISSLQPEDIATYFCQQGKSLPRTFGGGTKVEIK" measurement="1.26 ratio to IC50 of chimeric CM-10"
